testedTarget: Aurora-A kinase (Homo sapiens, UniProt O14965)
Sequence (O14965 1-403): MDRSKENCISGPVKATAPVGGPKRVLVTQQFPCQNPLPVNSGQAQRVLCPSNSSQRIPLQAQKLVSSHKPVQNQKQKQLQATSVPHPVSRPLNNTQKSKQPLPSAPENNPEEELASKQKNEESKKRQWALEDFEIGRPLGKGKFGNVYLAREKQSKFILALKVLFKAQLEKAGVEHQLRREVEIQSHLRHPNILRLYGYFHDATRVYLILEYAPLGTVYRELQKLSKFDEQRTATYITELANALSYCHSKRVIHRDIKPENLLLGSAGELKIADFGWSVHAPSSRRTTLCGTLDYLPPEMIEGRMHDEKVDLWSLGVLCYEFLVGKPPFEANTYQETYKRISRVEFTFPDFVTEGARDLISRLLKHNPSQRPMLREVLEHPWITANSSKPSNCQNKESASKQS
testMethodNotes: Caliper Mobility Shift assay for inhibitory activity against aurora kinase (Aurora-A)
Format: biochemical
conditionLabel: FAM-labeled polypeptide substrate, 25° C.
experimentalReadout: IC50 (nM)
Give just the number in nM; leave the unit off.

According to the records, this molecule CCC1CC(Cc2nc(Nc3nccs3)ccc2F)(C(=O)O)CCN1Cc1cccc(Cl)c1F (stereo not shown) [Compound 29] displays IC50 of 1.3

According to the records, this molecule CCOCC1CC(Cc2nc(Nc3nccs3)ccc2F)(C(=O)O)CCN1Cc1cccc(Cl)c1F (stereo not shown) [Compound 7] displays IC50 of 0.74

According to the records, this molecule Cc1cc(Nc2ccc(F)c(CC3(C(=O)O)CCN(Cc4cccc(Cl)c4F)C(C(F)(F)F)C3)n2)n[nH]1 (stereo not shown) [Compound 15] displays IC50 of 0.62

According to the records, this molecule O=C(O)C1(Cc2nc(Nc3nccs3)ccc2F)CCN(Cc2cccc(Cl)c2F)C(C(F)(F)F)C1 (stereo not shown) [Compound 1] displays IC50 of 0.53

According to the records, this molecule CCC1CC(Cc2nc(Nc3cc(C)[nH]n3)ccc2F)(C(=O)O)CCN1Cc1cccc(Cl)c1F (stereo not shown) [Compound 19] displays IC50 of 3.1

According to the records, this molecule COCC1CC(Cc2nc(Nc3cc(C)[nH]n3)ccc2F)(C(=O)O)CCN1Cc1cccc(Cl)c1F (stereo not shown) [Compound 25] displays IC50 of 0.78

According to the records, this molecule COCC1CC(Cc2nc(Nc3ncc(C)s3)ccc2F)(C(=O)O)CCN1Cc1cccc(Cl)c1F (stereo not shown) [Compound 23] displays IC50 of 0.57

====

testedTarget: Aurora-A kinase (Homo sapiens, UniProt O14965)
testMethodNotes: Caliper Mobility Shift assay for inhibitory activity against aurora kinase (Aurora-A)
Assay type: biochemical
conditionLabel: FAM-labeled polypeptide substrate, 25° C.
experimentalReadout: IC50 (nM)
Give just the number in nM; leave the unit off.

According to the records, this compound CCC1CC(Cc2nc(Nc3nccs3)ccc2F)(C(=O)O)CCN1Cc1cccc(Cl)c1F (stereo not shown) [Compound 5] displays IC50 of 0.82

According to the records, this compound Cc1cnc(Nc2ccc(F)c(CC3(C(=O)O)CCN(Cc4cccc(Cl)c4F)C(C(F)(F)F)C3)n2)s1 (stereo not shown) displays IC50 of 0.64

According to the records, this compound O=C(O)C1(Cc2nc(Nc3nccs3)ccc2F)CCN(Cc2cccc(Cl)c2F)C(CF)C1 (stereo not shown) displays IC50 of 2.4

According to the records, this compound COCC1CC(Cc2nc(Nc3nccs3)ccc2F)(C(=O)O)CCN1Cc1cccc(Cl)c1F (stereo not shown) displays IC50 of 0.57

====

testedTarget: Aurora-B kinase (Homo sapiens, UniProt Q96GD4)
Sequence (Q96GD4 whole entry): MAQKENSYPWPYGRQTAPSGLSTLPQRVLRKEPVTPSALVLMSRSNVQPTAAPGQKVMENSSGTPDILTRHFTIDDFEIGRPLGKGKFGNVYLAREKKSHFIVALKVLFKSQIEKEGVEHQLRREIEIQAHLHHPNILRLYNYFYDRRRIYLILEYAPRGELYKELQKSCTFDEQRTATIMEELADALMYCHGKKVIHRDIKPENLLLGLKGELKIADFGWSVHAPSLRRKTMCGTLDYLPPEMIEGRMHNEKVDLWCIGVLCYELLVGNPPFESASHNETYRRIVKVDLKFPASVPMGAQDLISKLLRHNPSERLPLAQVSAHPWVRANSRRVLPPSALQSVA
testMethodNotes: Caliper Mobility Shift assay for inhibitory activity against aurora kinase (Aurora-B)
Type: biochemical
conditionLabel: FAM-labeled polypeptide substrate, 25° C.
Give IC50 for every item shown.
Give just the number in nM; leave the unit off.

According to the records, this compound COCC1CC(Cc2nc(Nc3nccs3)ccc2F)(C(=O)O)CCN1Cc1cccc(Cl)c1F (stereo not shown) [Compound 6] displays IC50 of 78

According to the records, this compound CCOCC1CC(Cc2nc(Nc3nccs3)ccc2F)(C(=O)O)CCN1Cc1cccc(Cl)c1F (stereo not shown) [Compound 7] displays IC50 of 286

According to the records, this compound CCC1CC(Cc2nc(Nc3nccs3)ccc2F)(C(=O)O)CCN1Cc1cccc(Cl)c1F (stereo not shown) [Compound 5] displays IC50 of 140

According to the records, this compound CCC1CC(Cc2nc(Nc3nccs3)ccc2F)(C(=O)O)CCN1Cc1cccc(Cl)c1F (stereo not shown) [Compound 29] displays IC50 of 90

According to the records, this compound O=C(O)C1(Cc2nc(Nc3nccs3)ccc2F)CCN(Cc2cccc(Cl)c2F)C(CF)C1 (stereo not shown) [Compound 11] displays IC50 of 128

According to the records, this compound Cc1cnc(Nc2ccc(F)c(CC3(C(=O)O)CCN(Cc4cccc(Cl)c4F)C(C(F)(F)F)C3)n2)s1 (stereo not shown) [Compound 13] displays IC50 of 113

====

System: human small cell lung cancer H69 cells
testMethodNotes: Anti-proliferation activity against H69 cells (ATP content, 72 h)
Assay type: cell-based
experimentalReadout: IC50 (µM)
Give just the number in µM; leave the unit off.

According to the records, this compound CCC1CC(Cc2nc(Nc3nccs3)ccc2F)(C(=O)O)CCN1Cc1cccc(Cl)c1F (stereo not shown) displays IC50 of 0.033

====

testedTarget: UniProt Q96GD4
testMethodNotes: Caliper Mobility Shift assay for inhibitory activity against aurora kinase (Aurora-B)
Assay type: biochemical
conditionLabel: FAM-labeled polypeptide substrate, 25° C.
experimentalReadout: IC50 (nM)
Give just the number in nM; leave the unit off.

According to the records, this molecule Cc1cc(Nc2ccc(F)c(CC3(C(=O)O)CCN(Cc4cccc(Cl)c4F)C(C(F)(F)F)C3)n2)n[nH]1 (stereo not shown) displays IC50 of 1490

According to the records, this molecule COCC1CC(Cc2nc(Nc3ncc(C)s3)ccc2F)(C(=O)O)CCN1Cc1cccc(Cl)c1F (stereo not shown) displays IC50 of 2470

According to the records, this molecule O=C(O)C1(Cc2nc(Nc3nccs3)ccc2F)CCN(Cc2cccc(Cl)c2F)C(C(F)(F)F)C1 (stereo not shown) displays IC50 of 148

These entries and their values trace back to patent US12275726B2.
